I'd appreciate it if you could supply Kd values for the items below.
# TEST_TARGET: T1, EsCas13d, nuclease-dead (Eubacterium siraeum, UniProt B0MS50, R295A;H300A;R849A;H854A)
# T1 sequence: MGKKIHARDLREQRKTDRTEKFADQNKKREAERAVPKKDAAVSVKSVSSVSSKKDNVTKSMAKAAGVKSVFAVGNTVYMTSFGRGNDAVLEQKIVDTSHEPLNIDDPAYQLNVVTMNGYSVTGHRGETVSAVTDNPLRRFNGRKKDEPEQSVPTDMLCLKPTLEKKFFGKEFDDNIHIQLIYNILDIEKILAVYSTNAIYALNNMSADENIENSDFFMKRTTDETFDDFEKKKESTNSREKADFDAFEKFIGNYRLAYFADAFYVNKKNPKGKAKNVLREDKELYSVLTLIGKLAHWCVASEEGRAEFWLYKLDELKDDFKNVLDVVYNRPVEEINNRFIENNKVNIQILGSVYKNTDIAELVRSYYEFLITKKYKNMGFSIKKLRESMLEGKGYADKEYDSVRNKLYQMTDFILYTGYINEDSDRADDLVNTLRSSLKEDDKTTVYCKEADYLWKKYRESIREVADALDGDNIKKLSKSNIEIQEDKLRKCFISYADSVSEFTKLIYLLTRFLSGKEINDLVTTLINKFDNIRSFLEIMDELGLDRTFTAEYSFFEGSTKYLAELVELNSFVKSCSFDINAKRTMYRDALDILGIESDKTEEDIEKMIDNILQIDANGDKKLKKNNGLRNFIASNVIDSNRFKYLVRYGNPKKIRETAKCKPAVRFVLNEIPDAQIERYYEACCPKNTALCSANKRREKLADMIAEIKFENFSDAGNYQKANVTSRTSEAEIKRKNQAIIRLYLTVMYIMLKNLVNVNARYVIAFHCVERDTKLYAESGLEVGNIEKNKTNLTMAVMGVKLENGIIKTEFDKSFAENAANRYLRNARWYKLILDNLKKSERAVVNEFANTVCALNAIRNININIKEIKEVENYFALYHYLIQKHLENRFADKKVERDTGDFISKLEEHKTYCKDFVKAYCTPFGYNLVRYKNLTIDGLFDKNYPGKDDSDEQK
# ASSAY_INFO: crRNA (strand 1, pre-loaded); Mg2+; 40 mM Tris-HCl pH 7.5, 150 mM NaCl, 6 mM MgCl2, 1 mM DTT, 0.1% Tween-20, 0.2 mg/ml BSA; 25 C; 10 min per concentration, then washed
# CONDITION_SET: tags: His6-TwinStrep-SUMO cleaved; N-terminal SNAP kept (SNAP-Surface 488); label: 3' end held by stalled T7 RNA polymerase
Answer format: number, then unit.

binder target 3 A18G,U22A (mixed) RNA 1: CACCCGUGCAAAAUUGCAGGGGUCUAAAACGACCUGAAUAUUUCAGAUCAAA RNA 2: GGGAAUGGAUCCACAUCUACGAAUUCGUUAUUGGUCUGAAAUAUUCAGGUCUGCAGAUCGGAAGAGCACACGU , Kd observed: 14.8 nM

So for target 1 C6U,U8G (mixed) RNA 1: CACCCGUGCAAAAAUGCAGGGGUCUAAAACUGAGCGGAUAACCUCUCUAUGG RNA 2: GGGAAUGGAUCCACAUCUACGAAUUCGUACCAUAGAGAGGUUAGCUGCUCACCGAGAUCGGAAGAGCACACGU , the logged Kd turned out to be 11 nM

The value of Kd measured for the binder target 1 A9C,A16G (mixed) RNA 1: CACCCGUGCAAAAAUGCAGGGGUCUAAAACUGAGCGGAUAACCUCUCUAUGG RNA 2: GGGAAUGGAUCCACAUCUACGAAUUCGUACCAUAGGGAGGUUCUCCGCUCACCGAGAUCGGAAGAGCACACGU turned out to be 68 nM

Short answer for target 3 insC 3' of 4,insU 3' of 1 (mixed) RNA 1: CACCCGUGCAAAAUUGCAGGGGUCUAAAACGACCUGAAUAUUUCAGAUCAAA RNA 2: GGGAAUGGAUCCACAUCUACGAAUUCGUUUUUGAUCUGAAAUAUUCAGCGUCUUGCAGAUCGGAAGAGCACACGU : Kd was 72.5 nM

Cited source: paper PMC10786891
